assayedSystem: human Claudin 18.2 (CLDN18.2) (human, UniProt P56856-2 1-261)
procedureSummary: cell-based or functional assay
Labelling field: enter 1 if recorded ADCC EC50, NCI-N87-CLDN18.2, FcR-TANK is less than 400 pM. Enter 0 if it equals or exceeds that cut-off.

binder	category
357B8F8-VH-S61I-VL-S32I (antibody, human IgG1, kappa, V domains shown) VH: QVQLKESGPGLVAPSQSLSITCTVSGFSLTSYGVHWVRQPPGKGLEWLGVIWPGGNTNYNIALMSRLSISKDNSKSQVFLKMNSLQTDDTAMYYCARDRRLAMDYWGQGTSVTVSS VL: DIVMTQSPSSLTVTAGEKVTMTCKSSQSLLNIGNQKNYLTWYQQKPGQPPKLLIYWASTRESGVPDRFTGSGSGTDFTLTISILQAEDLAVYYCQNDYSYPFTFGSGTKLEIKR	0
282A12F3 (T62A) (antibody, human IgG1, kappa, V domains shown, chimeric human IgG1, PTM site removed; also called 282A12F3-VH-NSA (T62A); 282A12 (T62A)) VH: QVQLKESGPVLVQPSQTLSLTCTVAGFSLTSYNVYWVRQPPGKGLEWMGVIWNTGATRYNSALKSRLSISKDTSKSQVFLKMNSLQTEDTATYYCARDSAMPAIPFAYWGQGTLVTVSS VL: DIVMTQSPSSLAVSAGETVTINCKSSQSLFGSVRQKNYLAWYQQKPGQSPKLLIYLASTRESGVPDRFIGSGSGTDFTLTISSVQAEDLAKYYCQQYYDIPWTFGGGTKLELKR	0
413H9F8-H2L2 (antibody, V domains shown, humanized IgG; constant regions not specified) VH: EVQLVESGGGLVQPGGSLRLSCAASGFTFSSFGMHWVRQAPGKGLEWVAYISSGSSPIYYVDKLKGRFTISRDNAKNSLYLQMNSLRAEDTAVYYCARAGYAVRNALDYWGQGTLVTVSS VL: DIVMTQSPDSLAVSLGERATINCKSSQSLLNVGNQKNYLAWYQQKPGQPPKLLIYGASTRESGVPDRFSGSGSGTDFTLTISSLQAEDVAVYFCQNDLFYPLTFGGGTKVEIK	1
413H9F8-cp1 (antibody, V domains shown, humanized IgG; constant regions not specified) VH: EVQLVESGGGLVQPGGSLRLSCAASGFTFSSFGMHWVRQAPGKGLEWVSYISSGSSPIYYVDKLKGRFTISRDNAKNSLYLQMNSLRAEDTAVYYCARAGYAVRNALDYWGQGTLVTVSS VL: EIVMTQSPPTLSLSPGERVTLSCKSSQSLLNVGNQKNYLAWYQQKPGQAPRLLIYGASTRESGIPARFSGSGSGTDFTLTISSLQPEDFAVYYCQNDLFYPLTFGGGTKVEIK	0
413H9F8-H4L3 (antibody, V domains shown, humanized IgG; constant regions not specified) VH: EVQLVESGGGLVQPGGSLRLSCAASGFTFSSFGMHWVRQAPGKGLEWVAYISSGSSPIYYVDKLKGRFTVSRDNAKNSLYLQMTSLRAEDTAVYYCARAGYAVRNALDYWGQGTLVTVSS VL: DIVMTQSPDSLAVSLGERATINCKSSQSLLNVGNQKNYLAWYQQKPGQPPKLLIYGASTRESGVPDRFIGSGSGTDFTLTISSLQAEDVAVYFCQNDLFYPLTFGGGTKVEIK	0
413H9F8-H2L1 (antibody, V domains shown, humanized IgG; constant regions not specified) VH: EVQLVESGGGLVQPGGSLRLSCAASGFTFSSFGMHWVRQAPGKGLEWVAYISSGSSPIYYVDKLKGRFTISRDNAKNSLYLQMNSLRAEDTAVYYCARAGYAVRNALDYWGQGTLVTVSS VL: DIVMTQSPDSLAVSLGERATINCKSSQSLLNVGNQKNYLAWYQQKPGQPPKLLIYGASTRESGVPDRFSGSGSGTDFTLTISSLQAEDVAVYYCQNDLFYPLTFGGGTKVEIK	1

Numbers sourced from patent US20210380680A1.
